These measurements were taken from the supplement of paper PMC10126150.

# maps each entry to its switch fluorescence ratio
test system: ATP; assay: switch fluorescence ratio, 500 uM ATP over buffer (Cy3 cluster intensity, sum of 5 cycles each) (fold (ratio)); higher = stronger signal-on switching upon ATP binding; sequences stand for … in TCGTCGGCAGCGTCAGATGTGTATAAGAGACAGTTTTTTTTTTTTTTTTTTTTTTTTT…TC; settings: aptamer strand: ATP DNA aptamer (quencher-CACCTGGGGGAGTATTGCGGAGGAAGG + anchor), 100 nM annealed; ATP concentration: 500 uM;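 also: ATP exposure 15 min at 22 °C before imaging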
quantity: switch fluorescence ratio

[[record]]
chain = "GGGGAAACAG"
quantity = "switch fluorescence ratio"
resultvalue = 1

[[record]]
chain = "CTGGGGGAAC"
quantity = "switch fluorescence ratio"
resultvalue = 1

[[record]]
chain = "TCGTGCTGCG"
quantity = "switch fluorescence ratio"
resultvalue = 1

[[record]]
chain = "GCGAATCGCT"
quantity = "switch fluorescence ratio"
resultvalue = 0.967

[[record]]
chain = "TCGGATGTCA"
quantity = "switch fluorescence ratio"
resultvalue = 0.965

[[record]]
chain = "TCGGATTAGT"
quantity = "switch fluorescence ratio"
resultvalue = 1

[[record]]
chain = "CTTTGAAGGA"
quantity = "switch fluorescence ratio"
resultvalue = 0.992

[[record]]
chain = "TTGATGTGCT"
quantity = "switch fluorescence ratio"
resultvalue = 1.01

[[record]]
chain = "CTTAAAAGTA"
quantity = "switch fluorescence ratio"
resultvalue = 0.972

[[record]]
chain = "AGCGGGTCGG"
quantity = "switch fluorescence ratio"
resultvalue = 1

[[record]]
chain = "TTAAGGGGTA"
quantity = "switch fluorescence ratio"
resultvalue = 1

[[record]]
chain = "ATATCAGTTC"
quantity = "switch fluorescence ratio"
resultvalue = 1.01

[[record]]
chain = "TAGACGGAAG"
quantity = "switch fluorescence ratio"
resultvalue = 1.05

[[record]]
chain = "GTATAGGGAC"
quantity = "switch fluorescence ratio"
resultvalue = 1.03

[[record]]
chain = "GAATTATTGT"
quantity = "switch fluorescence ratio"
resultvalue = 0.959

[[record]]
chain = "TTGATTCATA"
quantity = "switch fluorescence ratio"
resultvalue = 0.981

[[record]]
chain = "GGGCATGATG"
quantity = "switch fluorescence ratio"
resultvalue = 1.02

[[record]]
chain = "TAGGAGGCTC"
quantity = "switch fluorescence ratio"
resultvalue = 1.03

[[record]]
chain = "GGTTACGTAG"
quantity = "switch fluorescence ratio"
resultvalue = 1.04

[[record]]
chain = "AGGAAGGGT"
quantity = "switch fluorescence ratio"
resultvalue = 0.998

[[record]]
chain = "GTATTTGGGG"
quantity = "switch fluorescence ratio"
resultvalue = 0.985


---

tested on: ATP; experiment: switch fluorescence ratio, 500 uM ATP over buffer (Cy3 cluster intensity, sum of 5 cycles each) (fold (ratio)); higher = stronger signal-on switching upon ATP binding; sequences stand for … in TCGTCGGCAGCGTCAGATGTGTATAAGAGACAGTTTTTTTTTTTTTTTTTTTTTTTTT…TC; settings: aptamer strand: ATP DNA aptamer (quencher-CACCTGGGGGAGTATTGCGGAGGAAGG + anchor), 100 nM annealed; ATP concentration: 500 uM;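 also: ATP exposure 15 min at 22 °C before imaging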
# maps each entry to its switch fluorescence ratio
quantity: switch fluorescence ratio

[[record]]
chain = "TTTTAAGGGG"
quantity = "switch fluorescence ratio"
resultvalue = 1.02

[[record]]
chain = "ACCGGTTGGT"
quantity = "switch fluorescence ratio"
resultvalue = 0.976

[[record]]
chain = "CTTGGAGGGT"
quantity = "switch fluorescence ratio"
resultvalue = 1.04

[[record]]
chain = "TGGGGTTATG"
quantity = "switch fluorescence ratio"
resultvalue = 0.984

[[record]]
chain = "GAGAGTACTT"
quantity = "switch fluorescence ratio"
resultvalue = 0.995

[[record]]
chain = "CTTTCTCAA"
quantity = "switch fluorescence ratio"
resultvalue = 1.32

[[record]]
chain = "TCATAAATTT"
quantity = "switch fluorescence ratio"
resultvalue = 1.01

[[record]]
chain = "AGTTTGGGTG"
quantity = "switch fluorescence ratio"
resultvalue = 1.01

[[record]]
chain = "TTTGTTGGTG"
quantity = "switch fluorescence ratio"
resultvalue = 1

[[record]]
chain = "AGAGGGATGG"
quantity = "switch fluorescence ratio"
resultvalue = 0.992

[[record]]
chain = "TTGTTGGTTT"
quantity = "switch fluorescence ratio"
resultvalue = 1.02

